# assayedSystem: T1, human CCR8 (human, UniProt P51685 1-355)
# T1 construct: whole, on cells; also called hCCR8
# T1 sequence (P51685 whole entry): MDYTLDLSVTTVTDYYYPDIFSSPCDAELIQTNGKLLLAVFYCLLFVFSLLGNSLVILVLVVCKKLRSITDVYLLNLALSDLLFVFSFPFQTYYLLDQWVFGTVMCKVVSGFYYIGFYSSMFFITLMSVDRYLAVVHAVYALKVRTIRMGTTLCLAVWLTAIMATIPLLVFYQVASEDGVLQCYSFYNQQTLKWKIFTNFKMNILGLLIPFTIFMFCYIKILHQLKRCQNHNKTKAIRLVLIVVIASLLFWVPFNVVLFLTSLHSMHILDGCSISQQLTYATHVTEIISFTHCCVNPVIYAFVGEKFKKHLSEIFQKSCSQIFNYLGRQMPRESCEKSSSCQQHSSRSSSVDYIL
# assayRemarks: FACS, competition with AF647-human CCL1 on CHO-K1-human CCR8 cells
assayReadout: Max Inhibition (%)

INSERT INTO measurements (binder, assayreadout, resultunits, valuereported) VALUES
  ('Hu348-8 (antibody, V domains shown, humanized IgG) VH: EVQLVESGGGLVQPGGSLKLSCATSGFSFSNYRMHWLRQASGKGLEWVGVITVKSDNYGANYAASVKGRFTISRDDSKNTAYLQMNSLKTEDTAVYYCSSLGRVAYWGQGTLVTVSS VL: DIQMTQSPSSVSASVGDRVTITCKASQNVDTNVVWYQQKPGQSPKALIYSASSRYSGVPDRFSGSGSGTDFTLTISSLQPEDFATYYCQQHNSFPLTFGQGTKLEIK', 'Max Inhibition (%)', '%', 88.4);
